- TARGET OR SYSTEM: T1, human LTβR extracellular domain fused with an Fc fragment at the C-terminus (human, UniProt P36941 31-227)
- T1 construct: extracellular domain; Bought; also called hLTβR; not shown: Fc fragment at the C-terminus
- T1 sequence (P36941 31-227): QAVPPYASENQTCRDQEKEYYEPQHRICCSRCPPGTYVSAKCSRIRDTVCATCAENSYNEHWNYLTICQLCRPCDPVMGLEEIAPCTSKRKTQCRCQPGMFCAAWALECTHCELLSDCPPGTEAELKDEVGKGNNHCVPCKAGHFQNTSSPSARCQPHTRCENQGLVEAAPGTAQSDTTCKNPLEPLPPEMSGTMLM
- PROCEDURE SUMMARY: phage ELISA
ENDPOINT LABEL: binding result

Retrieve binding result measured for LIGHT-53 (ligand, Printed mutations: Q117N, L220S, L227T; Soluble protein carries an N-terminal His tag) DGPAGSWEQLIQERRSHEVNPAAHLTGANSSLTGSGGPLLWETNLGLAFLRGLSYHDGALVVTKAGYYYIYSKVQLGGVGCPLGLASTITHGLYKRTPRYPEELELLVSQQSPCGRATSSSRVWWDSSFLGGVVHLEAGEKVVVRVSDERLVRTRDGTRSYFGAFMV and print it.
binds

Kindly indicate its recorded binding result. Item: LIGHT-44 (ligand, Printed mutations: G150R, L158P, L220S; Soluble protein carries an N-terminal His tag) DGPAGSWEQLIQERRSHEVNPAAHLTGANSSLTGSGGPLLWETQLGLAFLRGLSYHDGALVVTKAGYYYIYSKVQLRGVGCPLGPASTITHGLYKRTPRYPEELELLVSQQSPCGRATSSSRVWWDSSFLGGVVHLEAGEKVVVRVSDERLVRLRDGTRSYFGAFMV
binds

Identify measured binding result associated with LIGHT-6 (ligand, Printed mutations: W198Q, L220N, D221G; Soluble protein carries an N-terminal His tag) DGPAGSWEQLIQERRSHEVNPAAHLTGANSSLTGSGGPLLWETQLGLAFLRGLSYHDGALVVTKAGYYYIYSKVQLGGVGCPLGLASTITHGLYKRTPRYPEELELLVSQQSPCGRATSSSRVWQDSSFLGGVVHLEAGEKVVVRVNGERLVRLRDGTRSYFGAFMV
binds

Find the measured binding result of LIGHT-79 (ligand, Printed mutations: Q117E, S160G, T161S, L220S, L227T; Soluble protein carries an N-terminal His tag) DGPAGSWEQLIQERRSHEVNPAAHLTGANSSLTGSGGPLLWETELGLAFLRGLSYHDGALVVTKAGYYYIYSKVQLGGVGCPLGLAGSITHGLYKRTPRYPEELELLVSQQSPCGRATSSSRVWWDSSFLGGVVHLEAGEKVVVRVSDERLVRTRDGTRSYFGAFMV and report it.
binds

Look up and report measured binding result for this entry: LIGHT-64 (ligand, Printed mutations: T161P, L220S, L227T; Soluble protein carries an N-terminal His tag) DGPAGSWEQLIQERRSHEVNPAAHLTGANSSLTGSGGPLLWETQLGLAFLRGLSYHDGALVVTKAGYYYIYSKVQLGGVGCPLGLASPITHGLYKRTPRYPEELELLVSQQSPCGRATSSSRVWWDSSFLGGVVHLEAGEKVVVRVSDERLVRTRDGTRSYFGAFMV
binds

Take each entry in turn and give its binding result.
1. LIGHT-70 (ligand, Printed mutations: Q117N, T161G, L220S, L227T; Soluble protein carries an N-terminal His tag) DGPAGSWEQLIQERRSHEVNPAAHLTGANSSLTGSGGPLLWETNLGLAFLRGLSYHDGALVVTKAGYYYIYSKVQLGGVGCPLGLASGITHGLYKRTPRYPEELELLVSQQSPCGRATSSSRVWWDSSFLGGVVHLEAGEKVVVRVSDERLVRTRDGTRSYFGAFMV
2. LIGHT-4 (ligand, Printed mutations: V152M, T161P, R228L; Soluble protein carries an N-terminal His tag) DGPAGSWEQLIQERRSHEVNPAAHLTGANSSLTGSGGPLLWETQLGLAFLRGLSYHDGALVVTKAGYYYIYSKVQLGGMGCPLGLASPITHGLYKRTPRYPEELELLVSQQSPCGRATSSSRVWWDSSFLGGVVHLEAGEKVVVRVLDERLVRLLDGTRSYFGAFMV
3. LIGHT-55 (ligand, Printed mutations: Q117N, L220T, L227T; Soluble protein carries an N-terminal His tag) DGPAGSWEQLIQERRSHEVNPAAHLTGANSSLTGSGGPLLWETNLGLAFLRGLSYHDGALVVTKAGYYYIYSKVQLGGVGCPLGLASTITHGLYKRTPRYPEELELLVSQQSPCGRATSSSRVWWDSSFLGGVVHLEAGEKVVVRVTDERLVRTRDGTRSYFGAFMV
4. LIGHT-50 (ligand, Printed mutations: N102R, L120Q, H208R, K214E; Soluble protein carries an N-terminal His tag) DGPAGSWEQLIQERRSHEVNPAAHLTGARSSLTGSGGPLLWETQLGQAFLRGLSYHDGALVVTKAGYYYIYSKVQLGGVGCPLGLASTITHGLYKRTPRYPEELELLVSQQSPCGRATSSSRVWWDSSFLGGVVRLEAGEEVVVRVLDERLVRLRDGTRSYFGAFMV
5. LIGHT-81 (ligand, Printed mutations: Q117N, S160G, T161P, L220S, E222S, L227T; Soluble protein carries an N-terminal His tag) DGPAGSWEQLIQERRSHEVNPAAHLTGANSSLTGSGGPLLWETNLGLAFLRGLSYHDGALVVTKAGYYYIYSKVQLGGVGCPLGLAGPITHGLYKRTPRYPEELELLVSQQSPCGRATSSSRVWWDSSFLGGVVHLEAGEKVVVRVSDSRLVRTRDGTRSYFGAFMV
6. LIGHT-65 (ligand, Printed mutations: S160G, L220S, L227T; Soluble protein carries an N-terminal His tag) DGPAGSWEQLIQERRSHEVNPAAHLTGANSSLTGSGGPLLWETQLGLAFLRGLSYHDGALVVTKAGYYYIYSKVQLGGVGCPLGLAGTITHGLYKRTPRYPEELELLVSQQSPCGRATSSSRVWWDSSFLGGVVHLEAGEKVVVRVSDERLVRTRDGTRSYFGAFMV

1. binds
2. binds
3. binds
4. binds
5. binds
6. binds

// fetch binding result given entry LIGHT-69 (ligand, Printed mutations: S160G, T161P, L220S, L227T; Soluble protein carries an N-terminal His tag) DGPAGSWEQLIQERRSHEVNPAAHLTGANSSLTGSGGPLLWETQLGLAFLRGLSYHDGALVVTKAGYYYIYSKVQLGGVGCPLGLAGPITHGLYKRTPRYPEELELLVSQQSPCGRATSSSRVWWDSSFLGGVVHLEAGEKVVVRVSDERLVRTRDGTRSYFGAFMV
binds

These data points were gathered from patent US20250361288A1.
